details: in n-propanol, 298.15 K
assayReadout: solubility (mole fraction)
// no unit, no text: just the number

Look at this molecule and give its reported solubility (mole fraction). `O=[N+]([O-])c1cccc2ccccc12` 0.03

====

details: in ethanol, 283.15 K
assayReadout: solubility (mole fraction)
// no unit, no text: just the number

Look at this molecule and give its reported solubility (mole fraction). `O=[N+]([O-])c1cccc2ccccc12` 0.0138

====

settings: in acetonitrile, 298.15 K
assayReadout: solubility (mole fraction)
// no unit, no text: just the number

Look at this compound and give its reported solubility (mole fraction). `O=[N+]([O-])c1cccc2ccccc12` 0.322

====

details: in acetonitrile, 308.15 K
assayReadout: solubility (mole fraction)
// no unit, no text: just the number

Look at this molecule and give its reported solubility (mole fraction). `O=[N+]([O-])c1cccc2ccccc12` 0.591
